Values were extracted from patent US20170340735A1.

Below, each entry is listed alongside its reported IC50.
Target: T1, human TIGIT on the cell surface (human, UniProt Q495A1 22-244)
T1 construct: Expressed on engineered Jurkat cells or naturally on human primary CD8+ T cells (the cells are named under assay); also called Human TIGIT Jurkat; human TIGIT expressing Jurkat cells
T1 sequence: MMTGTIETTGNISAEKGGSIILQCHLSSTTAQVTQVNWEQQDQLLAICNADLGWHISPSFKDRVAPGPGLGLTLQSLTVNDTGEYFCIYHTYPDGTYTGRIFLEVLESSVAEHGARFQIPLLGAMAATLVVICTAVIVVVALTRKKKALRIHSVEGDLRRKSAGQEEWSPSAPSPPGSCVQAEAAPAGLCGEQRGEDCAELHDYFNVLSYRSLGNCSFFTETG
Assay: flow cytometry, antibody titrated against labeled PVR-Fc binding to human TIGIT Jurkat cells
// unit must come after the numeric part

Memo: MAB21-IgG4 (antibody, V domains shown) VH: QVQLVQSGAEVKKPGASVKVSCKASGYTFTSHYMGWVRQAPGQGLEWMGIINPSMGATSYTQKFRGRVTMTRDTSTSTVYMELSSLRSEDTAVYYCARLHVSGSYYPAYLDYWGQGTMVTVSS VL: EIVMTQSPATLSVSPGERATLSCRASQSVSSNLAWYQQKPGQAPRHLIYGASTRATGIPARFSGSGSGTEFTLTISSLQSEDFAVYYCQQYIVFPWTFGGGTKVEIKR , reported IC50: 1 nM

// IC50 value for MAB13-IgG4 (antibody, V domains shown) VH: QVQLVQSGAEVKKPGASVKVSCKASGYTFGNYYMHWVRQAPGQGLEWMGIINPSLGLTSYAQKFQGRVTMTRDTSTSTVYMELSSLRSEDTAVYYCARGGRTTWIGAFDIWGQGTMVTVSS VL: EIVMTQSPATLSVSPGERATLSCRASQSVSSNLAWYQQKPGQAPRLLIYGASTRATGIPARFSGSGSGTEFTLTISSLQSEDFAVYYCQQYVVWPPLTFGGGTKVEIKR : 2.1 nM

The binder listed as MAB14-IgG4 (antibody, V domains shown) VH: QVQLVQSGAEVKKPGASVKVSCKASGYTFPAYYMHWVRQAPGQGLEWMGIINPSLGLTSYAQKFQGRVTMTRDTSTSTVYMELSSLRSEDTAVYYCARGGRTTWIGAFDIWGQGTMVTVSS VL: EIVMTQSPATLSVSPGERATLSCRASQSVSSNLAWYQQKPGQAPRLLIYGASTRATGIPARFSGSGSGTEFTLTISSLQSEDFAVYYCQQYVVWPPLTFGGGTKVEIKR shows IC50 equal to 2.6 nM

# next binder below
Consider MAB20-IgG4 (antibody, V domains shown) VH: QVQLVQSGAEVKKPGASVKVSCKASGYTFTSHYMGWVRQAPGQGLEWVGIINPSMGATSYAQKFQGRVTMTRDTSTSTVYMELSSLRSEDTAVYYCARLHVSGSYYPAYLDYWGQGTMVTVSS VL: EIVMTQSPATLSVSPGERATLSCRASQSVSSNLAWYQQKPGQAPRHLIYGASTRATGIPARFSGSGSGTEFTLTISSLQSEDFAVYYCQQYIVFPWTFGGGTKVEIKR . Its measured IC50 is 2.3 nM
